assay: NCI Yeast Anticancer Drug Screen. Data for the CLN2oe strain (AID 163);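 note: 0% = growth of vehicle-only control cultures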; conditions: S. cerevisiae CLN2oe strain, at 3.7 µM, active compounds read high
Compounds without any hit were thinned out: in the full panel of roughly 79,000, 15% have a hit.
MEASUREMENT LABEL: growth inhibition (%)

1) Cc1ccccc1C1=C(CC(=O)O)c2ccccc2CC1C (stereo not drawn)    15
2) Cc1ccc(P(c2ccc(C)cc2)c2ccc(C)cc2)cc1    4
3) COc1ccc(C(=O)OCCc2ccccc2)cc1    -9
4) CCCCCC/C(C)=N/Nc1ccc([N+](=O)[O-])cc1[N+](=O)[O-]    -10
5) Cc1cc(N(CCOS(C)(=O)=O)CCOS(C)(=O)=O)ccc1C=O    9
6) CN(C)N1C(=O)SCC(c2ccccc2)(c2ccccc2)C1=O    7
7) CC1=NN(C(=O)CC(=O)N(C(=O)c2ccccc2)c2ccc(Cl)cc2)C(=O)C1N=Nc1ccc([N+](=O)[O-])cc1 (stereo not drawn)    6
8) O=[N+]([O-])C(=C(NCc1ccccc1)NCc1ccccc1)C(Cl)=C(Cl)Cl    -3

---

assay: NCI Yeast Anticancer Drug Screen. Data for the mlh1 rad18 strain (AID 175); details: S. cerevisiae mlh1 rad18 strain growth inhibition; at 50.0 µM (retest, dose inferred, filed as 5.0); active compounds read high
About 79,000 compounds went through this panel and 15% of them were active in at least one assay; those are over-represented in the sample as a whole.
Everything with growth inhibition lower than 90% is f; everything else, including exactly 90%, is t.

1. COc1ccc2nc3cccc([N+](=O)[O-])c3c(NCCCO)c2c1    t
2. O=C1c2ccccc2C2CCC1c1ccccc12 (centres undefined)    f
3. O=C(Cc1ccccc1F)NC1=C(Cl)C(=O)c2ccccc2C1=O    f
4. Cc1cccc[c]1[Sn]([Cl])([S]/C(C#N)=N/N=C/c1ccc(N(C)C)cc1)[c]1ccccc1C    f
5. CNc1ccc2[nH]c3ccccc3c2c1    f
6. COc1ccc(C(=O)NCCN(C)C)c2nc3ccccc3cc12    f
7. N#C/C(=C1C=C/C(=N\O)C(Cl)=C\1)c1ccccc1    f
8. C[n+]1c(-c2ccc(NC(=O)c3ccc(C(=O)Nc4ccc(-c5cn6ccccc6[n+]5C)cc4)cc3)cc2)cn2ccccc21    t
9. NCC(O)CSCc1ccc(Cl)cc1 (centres undefined)    f
10. CC[N+]1(C)CCC(O)(/C=C/c2ccc(Cl)c(Cl)c2)C(C(=O)/C=C/c2ccc(Cl)c(Cl)c2)C1 (centres undefined)    t
11. CCOc1nc(OCC)nc(-c2cccn2-c2ccccc2)n1    t
12. CC1=NN(C(=O)CC(=O)N(C(=O)c2ccccc2)c2ccc(Cl)cc2)C(=O)C1N=Nc1ccc([N+](=O)[O-])cc1 (centres undefined)    f
13. Cc1ccc(Cl)c2c(=O)c3ccccc3[nH]c12    f
14. CCOC(=O)C1=C(C)NC(C)=C(C(=O)OCC)C1c1ccc(Cl)cc1    t
15. Cc1nc2ccccc2c(=O)n1NC(=O)c1ccc(CS)cc1    f
16. OC(c1ccc(Br)cc1)(c1cccs1)C1CC1 (centres undefined)    t
17. COc1cc(NCCCCCNC(C)C)c2ncccc2c1Cl    f
18. Nc1ccc2cc(Br)c3ccccc3c2c1    f
19. O=C(Nc1ccn(C2CC(O)C(COC(c3ccccc3)(c3ccccc3)c3ccccc3)O2)c(=O)n1)c1ccccc1 (centres undefined)    t
20. O=C(O)NCC1CCCCC1 (tested in a mixture with another compound)    f
21. Cc1ccc2c(/C=C/c3ccc(N(C)C)cc3)ccnc2c1C    f
22. OC1C#CCSCC#C/C=C\1 (centres undefined)    t
23. Oc1ccc(Br)cc1C=Nc1cccc(C(F)(F)F)c1    t
24. CN1CCN(c2ccc3nc(-c4ccc5nc(-c6ccc(O)cc6)[nH]c5c4)[nH]c3c2)CC1    t
25. O=C1OC(c2ccc(Cl)cc2)Sc2ccccc21 (centres undefined)    f
26. O=C1C(Br)=CC(Br)(Br)C=C1Br    t
27. O=S(=O)(O)c1ccc2c(N=Nc3c(O)ccc4ccccc34)cccc2c1    f
28. CCOC(=O)/C=C1\CCCn2c1ncc(C(=O)OCC)c2=O    f
29. COc1ccc(C(=O)OCCc2ccccc2)cc1    f
30. COc1ccc2nc(N/N=C/c3sccc3C)cc(C)c2c1    f
31. COc1ccc(CCN2C(=O)C=CC2=O)cc1OC    f
32. O=S(=O)(Oc1c(Cl)cc(Cl)cc1Cl)c1ccccc1    f
33. [N-]=[N+]=NC1CC(n2ccc(=O)[nH]c2=O)OC1COC(c1ccccc1)(c1ccccc1)c1ccccc1 (centres undefined)    f
34. [Cl][Pt+2][Cl].[NH-]CC1(C[NH-])CCCCC1    t
35. Cc1cc(NCCCN(C)C)c2ccc3c(ccc4c(NCCCN(C)C)cc(C)nc43)c2n1    f
36. CN(C)CCNC(=O)c1cccc2nc3c4ccccc4c4ccccc4c3nc12    t
37. CCCC(=O)OC(OC(=O)CCC)c1ccc([N+](=O)[O-])o1    f
38. O=C(O)/C=C\C(=O)NNc1ccc(Br)cc1    t
39. O=C1C(C(O)(C(F)(F)F)C(F)(F)F)CCC1C(O)(C(F)(F)F)C(F)(F)F (centres undefined)    f
40. CC[C@@]1(OC(=O)CN(C)C)C(=O)OCc2c1cc1n(c2=O)Cc2cc3ccccc3nc2-1    t
41. COc1ccc(/C(=N/O)c2ccccc2C2=Nc3ccccc3C(NCc3ccccc3)O2)cc1C (centres undefined)    t

Just for reference, PubChem BioAssay (NCI) is where these values come from.
